# System: SN12C
# EXPERIMENT DESCRIPTION: NCI tumour cell line growth inhibition, 48 h
Activity calls are given as the source filed them. Cut-off read from the data, not from the text of the source: active = GI50 up to about 1.1 µM and inactive = higher.
Parameter GI50: see the listing below.
METRIC: GI50

1. COc1ccc(NC(=O)Oc2cc(C)c3ccc(=O)cc-3o2)c(OC)c1.COc1ccc(NC(=O)Oc2ccc3c(C)cc(=O)oc3c2)c(OC)c1 | > 100 µM (inactive)
2. CC(=O)OC(CC(C)C)P1(=O)N(CC(C)(C)C)[C@@H]2CCCC[C@H]2N1CC(C)(C)C (some centres not stated) | 10.7 µM (inactive)
3. COc1ccc2c(c1)-c1nc(=S)n(CCCN(C)C)c3ccc([N+](=O)[O-])c(c13)N2 | 0.582 µM (active)
4. Nc1nc(Cl)c(N)c(NCC2(CO)CC(O)C2)n1 (configuration not stated) | > 100 µM (inactive)
5. COc1ccc(/C=N/N=C(\N)NO)c(O)c1 | 8.53 µM (inactive)
6. CCOC(=O)c1cnc2sc3ccc4ccccc4c3n2c1=O | 39.3 µM (inactive)
7. CCC(=O)OC[n+]1ccc2c(C)c3[nH]c4ccccc4c3c(C)c2c1 | 0.401 µM (active)
8. CC1=CC(=O)N2[C@H](OC[C@@H]2C(C)C)O1 | > 100 µM (inactive)
9. CCc1ccccc1NC(=O)C1=C(C)NC(C)=C(C(=O)Nc2ccccc2CC)C1c1ccc(NC(C)=O)cc1 | 29.8 µM (inactive)
10. CN1Cc2ccccc2/C=C\c2ccccc21 | 83.4 µM (inactive)
11. NC1CNC(=O)c2cscc21 (configuration not stated) | > 100 µM (inactive)
12. OC[C@]1(n2nc3ccccc3n2)OC[C@@H]1c1ccccc1 | 43.1 µM (inactive)
13. COc1ccc([C@@]23Oc4cc(OC)cc(OC)c4[C@]2(O)[C@H](O)[C@H](C(N)=O)[C@H]3c2ccccc2)cc1 [DIDESMETHYLROCAGLAMIDE] | < 0.01 µM (active)
14. COC1=C2CC(C)CC(OC)[C@@H](OC(=O)CCN)[C@H](C)/C=C(\C)C(OC(N)=O)C(OC)/C=C\C=C(/C)C(=O)NC(=CC1=O)C2=O (some centres not stated) | 1.07 µM (active)
15. COc1cccc(C2CC(C)(N3CCCC3)Oc3cc4c(cc32)OCO4)c1O (configuration not stated) | 25.6 µM (inactive)
16. c1ccc(C2=NN3CN(N2)c2ccccc2OCCCOc2ccccc23)cc1 | > 100 µM (inactive)
17. CC1CN=C(Nc2ccc(F)cc2F)S1 (configuration not stated) | > 100 µM (inactive)
18. Cc1cc(-c2cccc3ccccc23)c(C#N)c(=S)n1C1OC(CO)C(O)C(O)C1O (configuration not stated) | 82.8 µM (inactive)
19. COc1ccc2c(c1)[n+]([O-])c(-c1ccc(C)cc1)c(N)[n+]2[O-] | > 100 µM (inactive)
20. CC(C)C(NCc1c2ccccc2nc2ccccc12)C(=O)O (configuration not stated) | 50 µM (inactive)
21. N=C(N)SCc1cc(Cl)cc(Cl)c1O | 17.4 µM (inactive)
22. CCOC(=O)C1Cc2ccc(C)cc2C1=O (configuration not stated) | 82.6 µM (inactive)
23. CC(=O)OC(C)c1cc2c(s1)C(=O)c1c(C(C)OC(C)=O)csc1C2=O (configuration not stated) | 0.682 µM (active)
24. Nc1ccccc1CC(O)C(=O)O (configuration not stated) | > 100 µM (inactive)
25. Oc1cc(Cl)ncn1 | > 100 µM (inactive)
26. CSc1ccc(C2OC(=O)c3ccccc32)c2ccccc12 (configuration not stated) | > 100 µM (inactive)
27. CC1=NN(C(=O)CC(=O)Nc2cccc(Cl)c2)C(=O)C1/N=N/c1ccc(S(N)(=O)=O)cc1 (configuration not stated) | > 100 µM (inactive)
28. O=C(OCC1CO1)c1cccs1 (configuration not stated) | > 100 µM (inactive)
29. CCNC(=O)Nc1ccccn1 | > 100 µM (inactive)
30. O=C1C(Cl)=CC2(C=C1Cl)CCNC1=C2C(=O)c2nc[nH]c2C1=O | 36.5 µM (inactive)
31. COC(=O)c1cc(C(=CCC[C@H]2CC[C@@]3(C)C(CCC4C3CC[C@@]3(C)C4CC[C@@H]3C(C)CCCC(C)C)C2)c2cc(Cl)c(O)c(C(=O)OC)c2)cc(Cl)c1O (some centres not stated) | > 10 µM (inactive)
32. Cn1cnc([N+](=O)[O-])c1Sc1nc2ccccc2s1 | 4.33 µM (inactive)
33. C=CCNC1=C2C[C@@H](C)C[C@@H](OC)[C@H](OC(=O)CCCCN)[C@H](C)/C=C(\C)[C@@H](OC(N)=O)[C@H](OC)/C=C\C=C(/C)C(=O)NC(=CC1=O)C2=O | 13 µM (inactive)
34. Fc1ccc(-c2sc(-c3ccsc3)cc2Cc2ccsc2)cc1 | > 10 µM (inactive)
35. CC1(C)C2CCC1(C)C(N/C(=C(/C(Cl)=C(Cl)Cl)[N+](=O)[O-])n1nnc3ccccc31)C2 (configuration not stated) | 41.8 µM (inactive)
36. CCC1CN2CCc3c([nH]c4ccccc34)[C@@](C(=O)OC)(c3cc4c(cc3OC)N(C)C3C(O)(C(=O)OC)C(C(=O)OC)C5(CC)C=CCN6CCC43C65)C[C@@H](C2)[C@@H]1C(C)(C)C (some centres not stated) | 0.607 µM (active)
37. Cc1cc(=O)[nH]c(-n2[nH]c3c(c2=O)CCCC3)n1 | 77.8 µM (inactive)
